System: Bacillus subtilis
PROTOCOL DETAILS: cleaved RNA product abundance (RNA/gDNA barcode ratio) relative to median wild-type variant (ratio to wild type); higher = more accumulation of the downstream cleavage product
TEST PARAMETERS: experiment (reporter, strain, medium): exp 4a: truncated aprE reporter, strain BJT201 with 2% xylose (RNase J1 expressed); cleavage site: cggR-gapA (positions -7 to +36 mutated)
Here the recorded cleaved RNA product abundance is given for each entry.

ACAGACGAAGGAGCCGCAAAGAAGTCATTAAGGGATGAATAATCCCCCAATATAAATATCTCTCACTTATTTAAA
0.113
ACAGACGAAGGAGCCGCAAAGAAGTTATTAAGGGATGAATAATACCTCATTATAAATATCTCTCACTTATTTAAA
0.117
ACAGACGAAGGAGCCGCAAAGAAGTTATTAAGAGATGAATAATTCCTCAATATAAATATCTCTCACTTATTTAAA
0.106
ACAGACGAAGGAGCCGCAAAGAAATTATTAAGGGATGAATAATCCCTAAATATAAATATCTCTCACTTATTTAAA
0.667
ACAGACGAAGGAGCCGCAAAGAAGTTATTAAGGGATGAATAATTCCTCAAAATAAATATCTCTCACTTATTTAAA
0.331

Exam item: Given the entry ACAGACGAAGGAGCCGCAAAAAAGTTATTAAGGTATGAATAATCCCTCAATATAAATATCTCTCACTTATTTAAA , report its measured cleaved RNA product abundance.
Marked response: 0.17

Exam item: Return reported cleaved RNA product abundance; argument: ACAGACGAAGGAGCCGCAAAGAAGTTATTAAGGTCTGAATAATCCCTCAATATAAATATCTCTCACTTATTTAAA
Marked response: 0.0753

----------
Test system: Bacillus subtilis
PROTOCOL DETAILS: cleaved RNA product abundance (RNA/gDNA barcode ratio) relative to median wild-type variant (ratio to wild type); higher = more accumulation of the downstream cleavage product
TEST PARAMETERS: experiment (reporter, strain, medium): exp 8a: truncated aprE reporter, strain BJT201 with 2% xylose (RNase J1 expressed); cleavage site: glnRA (positions -5 to +31 mutated)
Ranges used to classify cleaved RNA product abundance: category 1: < 0.3; category 2: ≥ 0.3 and < 0.6; category 3: ≥ 0.6

CGACATGTCCCGCTTCTTTCATTAATCCGTTAGCAACTGTTTTGCTAAATACCTTTACCTTTTAAGAGGAGGAAT
category 1
CGACATGTCCCGCTTCTTTCATTAATCCTTTAGTAACTGTTTTGCTATATACATTTACCTTTTAAGAGGAGGAAT
category 2
CGACATGTCCCGCTTCTTTCATTAATCCGTTTGCAACTGTTTAGCTATATACATTTACCTTTTAAGAGGAGGAAT
category 2
CGACATGTCCCGCTTCTTTCATTAATTCGTTAGCAACTGTTTTGCTATATACATTTATCTTTTAAGAGGAGGAAT
category 3
CGACATGTCCCGCTTCTTTCATTAATCCGTTAGCAACTATTTTGCTATATACATTTACATTTTAAGAGGAGGAAT
category 3
CGACATGTCCCGCTTCTTTCATTAATCCGTTAGCAACTGATTTTCTATATACATTTACCTTTTAAGAGGAGGAAT
category 3
CGACATGTCCCGCTTCTTTCATTAATCCGTTATCAACTGTTTTGCTATATACATTTGCCTTTTAAGAGGAGGAAT
category 1
CGACATGTCCCGCTTCTTTCATTAATCCGTTACCAACTATTTTGCTATATACATTTACCTTTTAAGAGGAGGAAT
category 1

Exam item: Classify this sequence: CGACATGTCCCGCTTCTTTCATTAATCCGTTTGCATCTGTTTTGCTATATACATTTACCTTTTAAGAGGAGGAAT
Marked response: category 1

Exam item: Category lookup for the sequence CGACATGTCCCGCTTCTTTCATTAATCCGTTAGCAACTGTTTAGCTATATACATTAACCTTTTAAGAGGAGGAAT
Marked response: category 3
